system: SK-MEL-5; experiment: NCI tumour cell line growth inhibition, 48 h
Activity calls are given as the source filed them. No stated cut-off is given here; in the data, active = GI50 up to about 1.1 µM and inactive = higher.
Outcome codes: class 1 (active), class 0 (inactive)

>>> answer_label("Cc1ccc(/C=C/C(=O)c2cccc3ccccc23)cc1")
"class 0"
>>> answer_label("NS(=O)(=O)c1ccccc1C(=O)N/N=C(\\c1nc2ccc([N+](=O)[O-])cc2[nH]c1=O)C(O)c1ccc([N+](=O)[O-])cc1 (stereo not given)")
"class 0"
>>> answer_label("N/N=C(\\c1nc2ccc([N+](=O)[O-])cc2nc1O)C(O)c1ccc(Cl)c(Cl)c1 (stereo not given)")
"class 0"
>>> answer_label("O=C(O)CN(CC(=O)O)c1ccccc1")
"class 0"
>>> answer_label("COc1ccccc1NC(=S)N/N=C(/C)c1ccccn1")
"class 1"
>>> answer_label("CCOC(=O)C1=C(C)N(NC(N)=O)C2(N)N(NC(N)=O)C(C)=C(C(=O)OCC)C12C#N (stereo not given)")
"class 0"
>>> answer_label("COc1ccc(C2=NC(CO)[C@H](c3ccccc3)O2)cc1OC (stereo not given in full)")
"class 0"
>>> answer_label("O=C1CC[C@@H](S(=O)(=O)c2ccccc2)[C@@H](/C=C/c2ccccc2)O1")
"class 0"
>>> answer_label("O=C1NC2C3CC(OCc4ccccc4)(OCc4ccccc4)C2OC3O1 (stereo not given)")
"class 0"
>>> answer_label("c1ccc2cc(OCC3CO3)c(OCC3CO3)cc2c1 (stereo not given)")
"class 0"

====

test system: NCI-H226; experiment: NCI tumour cell line growth inhibition, 48 h
Activity calls are given as the source filed them. Rule as the data show it: active = GI50 up to about 1.1 µM and inactive = higher. Non-standard residues stand in square brackets, D forms with d. Residues, ends and D or L forms follow the SMILES beside them. ξ: configuration not given here. ξLac(3-iPr) = CC(C)CC(O)C(=O)O; NMeV = CN[CH](C(=O)O)C(C)C; NMeA = CN[CH](C)C(=O)O; βAla = NCCC(=O)O
Outcome codes: class 1 for active, class 0 for inactive

>>> answer_label("Oc1cc(-c2ccc3c(c2)OCO3)nc2cc3c(cc12)OCO3")
"class 0"
>>> answer_label("Clc1ccc(SCCCCCCCCCCSc2ccc(Cl)cc2)cc1")
"class 0"
>>> answer_label("CC1(C)OCC(C2OC(OC(=O)c3ccc([N+](=O)[O-])cc3)C3OC(C)(C)OC23)O1 (stereo not given)")
"class 0"
>>> answer_label("COc1ccc(/C=C2\\CCC(CNc3cc(C)on3)C2=O)cc1 (stereo not given)")
"class 0"
>>> answer_label("CNC(=O)CN(CC(N)=O)C(N)=O")
"class 0"
>>> answer_label("c1ccc(CN2C3C4N(Cc5ccccc5)C2C2N(Cc5ccccc5)C(C(N2Cc2ccccc2)N4Cc2ccccc2)N3Cc2ccccc2)cc1")
"class 0"
>>> answer_label("C/C(=N\\NC(=O)c1ccncc1)c1ccccc1F")
"class 0"
>>> answer_label("COc1ccc(/C=C2\\N=C(SC)NC2=O)cc1")
"class 0"
>>> answer_label("COc1cc(C2SC(=N)Nc3c2c(C)nn3C(=O)c2ccc(Cl)cc2)ccc1O (stereo not given)")
"class 0"
>>> answer_label("CCOP(=O)(OCC)/C(C#N)=C/c1cccn1C(C)C")
"class 0"
>>> answer_label("O=C(CCC(=O)CC(O)(C(F)(F)F)C(F)(F)F)CC(O)(C(F)(F)F)C(F)(F)F")
"class 0"
>>> answer_label("CC(/C=N\\NC(=S)N(C)C)=N/NC(=S)N(C)C")
"class 1"
>>> answer_label("O=C1C2C=CC(n3[nH]c(=O)n(Cc4ccccc4)c3=O)CC2C(=O)N1c1ccc(Br)cc1 (stereo not given)")
"class 0"
>>> answer_label("CN(C)C(=S)/N=c1\\ss/c(=N\\C(=S)N(C)C)n1Cc1ccco1")
"class 0"
>>> answer_label("O=C(Nc1ccccc1-c1nn(C(=S)Nc2ccccc2)c(=S)n(C(=S)Nc2ccccc2)c1=O)C(F)(F)F")
"class 0"
>>> answer_label("CC(=O)OCCOCBr")
"class 0"
>>> answer_label("CCC(C)C1NC(=O)C2CCCN2C(=O)C(CC(C)C)OC(=O)CCNC(=O)C(C)N(C)C(=O)C(C(C)C)N(C)C1=O (stereo not given) (cyclo([ξLac(3-iPr)]PI[NMeV][NMeA][βAla]); configuration not given here)")
"class 0"
>>> answer_label("CCOc1ccc(NC(=O)C2=C(C)NC(C)=C(C(=O)Nc3ccc(OCC)cc3)C2c2ccc([N+](=O)[O-])cc2)cc1")
"class 0"
>>> answer_label("O=C(O)CCCN/C(=C1\\C(=O)C(=O)N(c2ccccc2)C1=O)c1ccccc1")
"class 0"
>>> answer_label("CC(=O)O[C@H]1CCC2[C@@H]3CCC4Cc5nc6c(nc5C[C@]4(C)C3CC[C@@]21C)CC1CC[C@@H]2C(CC[C@@]3(C)C2CC[C@@H]3C(C)CCCC(C)C)[C@@]1(C)C6 (stereo not given in full)")
"class 0"
